Taken from patent US5840721A.

Answer each item with its documented EC50.
# Tested on: CEM/VLB1000 cell line
# protocol_notes: Cytotoxicity potentiation: enhancement of vinblastine cytotoxicity in MDR cell line (alamar blue)
# Assay type: cell-based, human
# assay_conditions: midpoint of minimum and maximum cytotoxicity induced by 3-5 μg/mL vinblastine and compound, 48 hours incubation, alamar blue 24 hours, read-out: Cytotocicity Potentiation (EC50)
# unit: nM | format: bare number

Input line: State EC50 on CEM/VLB1000 cell line. Entry: CCN(CC)C/C=C/c1ccc(-c2nc(-c3ccc(N(C)C)cc3)c(-c3ccc(N(C)C)cc3)[nH]2)cc1 [Example 80]
Output line: 880

Input line: State EC50 on CEM/VLB1000 cell line. Entry: CNc1ccc(-c2[nH]c(-c3ccc(/C=C/COc4ccc(OC)c(OC)c4)cc3)nc2-c2ccc(N(C)C)cc2)cc1 [Example 79]
Output line: 1210

Input line: State EC50 on CEM/VLB1000 cell line. Entry: CNc1ccc(-c2[nH]c(-c3ccc(/C=C/COc4ccccc4)cc3)nc2-c2ccc(N(C)C)cc2)cc1 [Example 78]
Output line: 450

====

# System: CEM/VLB1000 cell line
# protocol_notes: Cytotoxicity potentiation: enhancement of vinblastine cytotoxicity in MDR cell line (alamar blue)
# Type: cell-based, human
# assay_conditions: Homo sapiens, midpoint of minimum and maximum cytotoxicity induced by 3-5 μg/mL vinblastine and compound, 48 hours incubation, alamar blue 24 hours, read-out: Cytotocicity Potentiation (EC50)
Answer each item with its documented EC50.
# unit: nM | format: bare number

Input line: Entry CNc1ccc(-c2[nH]c(-c3ccc(/C=C/C(=O)OC)cc3)nc2-c2ccc(-n3ccnc3)cc2)cc1 [Example 70] needs its EC50 filled in; supply it.
Output line: 500

Input line: Entry COCCOC/C=C/c1ccc(-c2nc(-c3ccc(N(C)C)cc3)c(-c3ccc(N(C)C)cc3)[nH]2)cc1 [Example 84] needs its EC50 filled in; supply it.
Output line: 90

Input line: Entry CNc1ccc(-c2nc(-c3ccc(/C=C/c4nc5ccccc5o4)cc3)[nH]c2-c2ccc(N3CCCC3)cc2)cc1 [Example 60] needs its EC50 filled in; supply it.
Output line: 450

Input line: Entry CN(C)c1ccc(-c2nc(-c3ccc(/C=C/COCc4ccccc4)cc3)[nH]c2-c2ccc(N(C)C)cc2)cc1 [Example 77] needs its EC50 filled in; supply it.
Output line: 340

Input line: Entry CCOC/C=C/c1ccc(-c2nc(-c3ccc(N(C)C)cc3)c(-c3ccc(N4CCCC4)cc3)[nH]2)cc1 [Example 90] needs its EC50 filled in; supply it.
Output line: 120

Input line: Entry CCOC/C=C/c1ccc(-c2nc(-c3ccc(OC)cc3)c[nH]2)cc1 [Example 109] needs its EC50 filled in; supply it.
Output line: 1850

Input line: Entry CCOC/C=C/c1ccc(-c2nc(-c3ccc(OCC)cc3)c(-c3ccc(OCC)cc3)n2CCCn2ccnc2)cc1 [Example 106] needs its EC50 filled in; supply it.
Output line: 380

Input line: Entry CNc1ccc(-c2[nH]c(-c3ccc(/C=C/c4nc5ccccc5o4)cc3)nc2-c2ccc(N(C)C)cc2)cc1 [Example 57] needs its EC50 filled in; supply it.
Output line: 210

Input line: Entry CCN(CC)c1ccc(-c2nc(-c3ccc(/C=C/c4nc5ccccc5o4)cc3)[nH]c2-c2ccc(NC)cc2)cc1 [Example 58] needs its EC50 filled in; supply it.
Output line: 470

Input line: Entry CNc1ccc(-c2nc(-c3ccc(/C=C/C(=O)OC)cc3)[nH]c2-c2ccc(N3CCCC3)cc2)cc1 [Example 67] needs its EC50 filled in; supply it.
Output line: 98

Input line: Entry CCOC/C=C/c1ccc(-c2nc(-c3ccc(OC(C)C)cc3)c(-c3ccc(OC(C)C)cc3)[nH]2)cc1 [Example 104] needs its EC50 filled in; supply it.
Output line: 250

Input line: Entry CN(C)c1ccc(-c2nc(-c3ccc(/C=C/C#N)cc3)[nH]c2-c2ccc(N(C)C)cc2)cc1 [Example 64] needs its EC50 filled in; supply it.
Output line: 550

Input line: Entry CN(C)c1ccc(-c2nc(-c3ccc(/C=C/CO)cc3)[nH]c2-c2ccc(N(C)C)cc2)cc1 [Example 113] needs its EC50 filled in; supply it.
Output line: 410

Input line: Entry CCOC/C=C/c1ccc(-c2nc(-c3ccc(N4CCN(CC)CC4)cc3)c[nH]2)cc1 [Example 126] needs its EC50 filled in; supply it.
Output line: 710

Input line: Entry CNc1ccc(-c2[nH]c(-c3ccc(/C=C/C(=O)OC)cc3)nc2-c2ccc(N(CCOC)CCOC)cc2)cc1 [Example 69] needs its EC50 filled in; supply it.
Output line: 330
